Data provenance is PubChem BioAssay (NCI).

Tested on: KM12 colon
PROCEDURE_DETAILS: NCI tumour cell line growth inhibition, 48 h
MEASURED_PARAMETER: TGI (µM)
A number alone suffices; assume µM.

{"MOLECULE": "COC(=O)[C@]12CC[C@H]3CN(C(=O)OCc4ccccc4)[C@H]([C@H]31)[C@H](c1ccco1)N2S(=O)(=O)c1ccc(C)cc1", "TARGET_OR_TEST_SYSTEM": "KM12 colon", "UNIT_OF_MEASURE": "µM", "TGI": 38.5}
{"MOLECULE": "COc1ccccc1/C=C/C(=O)/C=C/c1ccccc1O", "TARGET_OR_TEST_SYSTEM": "KM12 colon", "UNIT_OF_MEASURE": "µM", "TGI": 1.5}
{"MOLECULE": "O=C(/C=C/c1ccccc1)CC(c1ccccc1)N1CCOCC1 (stereo unspecified)", "TARGET_OR_TEST_SYSTEM": "KM12 colon", "UNIT_OF_MEASURE": "µM", "TGI": 3.72}
{"MOLECULE": "CCCCCCCCCCCC[n+]1ccccc1 (tested in a mixture with another compound)", "TARGET_OR_TEST_SYSTEM": "KM12 colon", "UNIT_OF_MEASURE": "µM", "TGI": 1.59}
{"MOLECULE": "O=C1c2cc3c(cc2CC1Br)CCC3 (stereo unspecified)", "TARGET_OR_TEST_SYSTEM": "KM12 colon", "UNIT_OF_MEASURE": "µM", "TGI": 22.1}

Need TGI, item CCN(CC)CCNC(=O)c1cn2ncnc(Oc3ccc(NC(=O)Nc4ccc(Cl)c(C(F)(F)F)c4)c(F)c3)c2c1C 3.08

Need TGI, item N=S(c1ccccc1)c1ccccc1[N+](=O)[O-] (stereo unspecified) 32.7

Need TGI, item O=C1C[C@H](Sc2ccccc2)C2(OCCO2)[C@@H](Sc2ccccc2)C1 7.36

Need TGI, item CCC(=C(c1ccc(OCCCN(C)C)cc1)c1ccc(OCCCN(C)C)cc1)c1ccc(Cl)cc1 3.43

Need TGI, item O=C(/C=C/c1ccsc1)c1ccsc1 37.7

Need TGI, item O=P(c1ccccc1)(c1ccccc1)N1O[C@@H](c2ccccc2)C=C[C@H]1c1ccccc1 44.4

====

Measured log10 TGI accompanies every entry in the list below.
Tested on: BT-549 breast
PROCEDURE_DETAILS: NCI tumour cell line growth inhibition, 48 h
Would you kindly interpret these values as log10 of TGI expressed in µM?

For orientation, consider the following solved cases.
{"COMPOUND": "O=C(/C=C/c1ccccc1)CC(c1ccccc1)N1CCOCC1 (centres undefined)", "RECORDED_RESULT": 0.56}
{"COMPOUND": "O=C(NCCCN(CCCCN(CCCNC(=O)C(F)(F)F)Cc1ccccc1)Cc1ccccc1)C(F)(F)F", "RECORDED_RESULT": 1.45}
{"COMPOUND": "CC(=O)N/N=C1\\NC(=O)C[C@H]2[C@@H]3CC=C4C[C@@H](OC(C)=O)CC[C@]4(C)[C@H]3CC[C@]12C", "RECORDED_RESULT": 1.51}
{"COMPOUND": "c1ccc(Cn2cnc3ccc(-c4nc(-c5ccc6c(c5)ncn6C5CCCCC5)cn5ccnc45)cc32)cc1", "RECORDED_RESULT": 0.43}

Need log10 TGI, item O=C(NCCN1CCOCC1)c1ccc2cc(C(=O)N3CC(CCl)c4ccc([N+](=O)[O-])cc43)[nH]c2c1 (centres undefined) 1.97

====

Measured GI50 accompanies every entry in the list below.
Tested on: MDA-MB-231 breast
PROCEDURE_DETAILS: NCI tumour cell line growth inhibition, 48 h

{"COMPOUND": "O=C(O)CCC(NC(=S)S)C(=O)O.[Na+].[Zn+2] (stereo not given)", "GI50": "> 50 µM"}
{"COMPOUND": "C[C@H](Cn1ncnn1)Nc1ncc2cc(Oc3ccc(F)cc3F)c(=O)n(C)c2n1", "GI50": "> 25 µM"}
{"COMPOUND": "CCCCCCCCCCCC[n+]1ccccc1 (tested in a mixture with another compound)", "GI50": "1.22 µM"}
{"COMPOUND": "O=C1c2cccnc2-c2nc(-c3ccncc3)cc3c2c1nc1ccccc13", "GI50": "14.3 µM"}

Need GI50, item CNC(=O)c1cc2c(Oc3ccc(NC(=O)C4(C(=O)Nc5ccc(F)cc5)CC4)cc3)ccnc2cc1OC 2.41 µM

====

Test system: SK-MEL-2 melanoma
PROCEDURE_DETAILS: NCI tumour cell line growth inhibition, 48 h
Measured GI50 accompanies every entry in the list below.

For orientation, consider the following solved cases.
{"MOLECULE": "CCSc1nc(N)c2cn[nH]c2n1", "RECORDED_RESULT": "47.3 µM"}
{"MOLECULE": "Cn1cc(-c2csc(-c3cn(C)c4ccccc34)n2)c2cnccc21", "RECORDED_RESULT": "2 µM"}
{"MOLECULE": "COc1ccc(CC(C)C(C)Cc2ccc(OC)c(OC)c2)cc1OC (stereo not given)", "RECORDED_RESULT": "> 1400 µM"}

Need GI50, item O=S1(=O)NCCCN1CCNc1nccc(-c2c(-c3cccc(O)c3)nc3sccn23)n1 2.57 µM

Need GI50, item CCN(CC)CCNC(=O)c1cn2ncnc(Oc3ccc(NC(=O)Nc4ccc(Cl)c(C(F)(F)F)c4)c(F)c3)c2c1C 1.61 µM

Need GI50, item Cc1cc(Nc2nc(SCc3ccc(C(=O)Nc4ccc(F)cc4N)cc3)nn3cccc23)n[nH]1 0.617 µM

Need GI50, item C[n+]1c2ccccc2cc2c(CNC(CCCN=C(N)N)C(=O)O)cccc21 (stereo not given) 0.957 µM

Need GI50, item Cc1ncc(C(=O)Nc2ccc(CN3CCN(C)CC3)c(C(F)(F)F)c2)cc1C#Cc1cnc(NC2CC2)c2ncccc12 1.66 µM

Need GI50, item Cn1c([N+](=O)[O-])cnc1/C=C1\Oc2cc(Cl)ccc2C1=O 0.436 µM

Need GI50, item C[C@H](Cn1ncnn1)Nc1ncc2cc(Oc3ccc(F)cc3F)c(=O)n(C)c2n1 > 25 µM

====

Test system: A549 NSCLC
PROCEDURE_DETAILS: NCI tumour cell line growth inhibition, 48 h
MEASURED_PARAMETER: TGI

For orientation, consider the following solved cases.
{"COMPOUND": "N#C/C(=C\\c1cc(Br)c(O)c(Br)c1)c1cccnc1", "TGI": "> 100 µM"}
{"COMPOUND": "CC(C)(C)NC(=O)/C(=C\\Sc1ccccc1)c1ccc2c(c1)OCO2", "TGI": "> 100 µM"}
{"COMPOUND": "Cc1c2c(n(CCc3ccc(Cl)cc3)c1C)NN=C(C#N)S2(=O)=O", "TGI": "> 100 µM"}

Need TGI, item CO[C@]12CC(=O)C3(C(C[C@H]4CC5CC=C6C[C@@H](OC(C)=O)CC[C@]6(OC(C)=O)C5C[C@@]43C)C1)C1C[C@H]3[C@@H]4CC=C5C[C@@H](OC(C)=O)CC[C@]5(OC(C)=O)[C@H]4CC[C@]3(C)C12 (some centres undefined) > 100 µM

====

Measured TGI accompanies every entry in the list below.
Test system: SK-MEL-2 melanoma
PROCEDURE_DETAILS: NCI tumour cell line growth inhibition, 48 h

{"MOLECULE": "CCOC(=O)/C=C(\\C)c1ccc(C)cc1C", "TGI": "> 100 µM"}
{"MOLECULE": "c1ccc(Cn2cnc3ccc(-c4nc(-c5ccc6c(c5)ncn6C5CCCCC5)cn5ccnc45)cc32)cc1", "TGI": "4.85 µM"}
{"MOLECULE": "Cc1cc(=O)c2c([nH]1)NS(=O)(=O)NC2=O", "TGI": "> 100 µM"}
{"MOLECULE": "O=C1/C(=C\\c2cccc(Oc3ccccc3)c2)S(=O)(=O)C(c2ccccc2)N1Cc1ccccc1 (stereo unspecified)", "TGI": "40.7 µM"}
{"MOLECULE": "O=C1c2cc3c(cc2CC1Br)CCC3 (stereo unspecified)", "TGI": "5.2 µM"}

Can you look up TGI on SK-MEL-2 melanoma for O=C1C(SCCO)=C(SCCO)C(=O)c2ccccc21 ? 4.24 µM

====

System: NCI/ADR-RES ovarian
PROCEDURE_DETAILS: NCI tumour cell line growth inhibition, 48 h
MEASURED_PARAMETER: TGI (µM)
A number alone suffices; assume µM.

For orientation, consider the following solved cases.
{"SMILES_INPUT": "COC(=O)[C@]12CC[C@H]3CN(C(=O)OCc4ccccc4)[C@H]([C@H]31)[C@H](c1ccco1)N2S(=O)(=O)c1ccc(C)cc1", "RECORDED_RESULT": 61.2}
{"SMILES_INPUT": "COc1ccc2cc(-c3ccc(-c4ccc(C(=N)N)s4)s3)ccc2c1", "RECORDED_RESULT": 4.87}
{"SMILES_INPUT": "O=c1oc(-c2ccc(O)c(O)c2)cc2cccc(O)c12", "RECORDED_RESULT": 51.3}

Can you look up TGI on NCI/ADR-RES ovarian for CC(C)COP(=O)(OCC(C)C)C(NS(=O)(=O)c1ccccc1)(C(F)(F)F)C(F)(F)F ? 23.6
